Please go through the items and note down their glycan array binding signal (z-score).
ASSAY SYSTEM: Neu5Ac(a2-6)Gal(b1-4)GlcNAc(b1-3)Gal(b1-4)GlcNAc(b1-3)[Neu5Ac(a2-6)Gal(b1-4)GlcNAc(b1-3)Gal(b1-4)GlcNAc(b1-6)]GalNAc
ASSAY DETAILS: glycan array binding signal (z-score within array); higher = stronger binding
CONDITION DESCRIPTION: glycan notation: IUPAC condensed, linker removed
The full list was thinned out, with the strongest signals kept by preference.
Just the number, please, no unit after it.

For the binder LFA (Limax flavus) (protein) MSVLFLAASFLLLASFELVAAQGCPRQDPGDWIVIQRRLNADVNFYRGWADYKHGFGDLRCNFWLGNEKIHQLTSHGRYKLRVEFTFNNKSYFAEYSTFKILGEADKYKLQVGGYSGNAGDALTFHNGMAFSTNDRDNDADSIDCAKVYHGAWWYKTCHESNLNGKWGSKKYGEGLNWKAKTTFTATATSSLLKIKALK , report glycan array binding signal (z-score).
2.5

Output glycan array binding signal (z-score) of HFR-3 (Triticum aestivum) (protein) MKGLLLCALALAFAAVTTHAQLQSCPTRCGKQADGMECPNNLCCSKDGYCGLGVDYCSAGAGCQSGACYDNKICGAQANGTLCRNNHCCSSGGRCGYGREYCSNGCQGGPCWADLKCGHLDNGKLCPNNLCCSQYGYCGLGPEFCGTGCQNGACSTDKPCGNKANGAPCTNNYCCSQYGSCGLGKDYCGTGCQNGACN
0.943

Tell us which glycan array binding signal (z-score) value is on record for rCnSL-A (Clitocybe nebularis) (protein) VNPNLPGPNDVFVGFRGTNNIVGAIYEKDGIKDTPLNNGADAEMGPGSYITDGLFTARIFASGSAGNNPGTTATVCKIYASGVQWRGAPKGYIPVAYFGNGPTAEQRRQTYLRTLGLPGTAIRFGNLNTNPGQGPTAPRQMVVPPGPLRSLLKASCFPAADTRLPQTLHYFEKRVDWNIITAADSQTWGH
0.406

Every entry's value here was drawn from the supplement of paper PMC8728848.
